Reported TGI values are given for each entry in this list.
test system: A549 NSCLC; experiment: NCI tumour cell line growth inhibition, 48 h
Give the value in µM but do not write µM after it.

Example cases with answers are listed next.
O=C(CNc1nc(-c2ccccc2)cs1)Nc1ccc([N+](=O)[O-])cc1 ... 24.4
CSc1ccccc1NC(=O)c1ccc2nnn(/C(C#N)=C/c3ccccn3)c2c1 ... 23.6

Now let's try a different one.
Input: Give A549 NSCLC TGI for `CN1CCN(c2ccc(Nc3nc(N4CCN(S(=O)(=O)c5ccc(F)cc5)CC4)c4sccc4n3)cc2)CC1`
Output: 4.44

* * *

Reported TGI values are given for each entry in this list.
tested on: HOP-62 NSCLC; test: NCI tumour cell line growth inhibition, 48 h
Give the value in µM but do not write µM after it.

Example cases with answers are listed next.
CONC[C@]1(C)C=C2C(=O)[C@](C)(O)C3(CC3)C(C)=C2[C@H]1O ... 4.55
O=C(CS(=O)(=O)c1oc(-c2ccc(Cl)cc2)nc1S(=O)(=O)c1ccc(Cl)cc1)N1CCOCC1 ... 47.3
O=C(CNc1nc(-c2ccccc2)cs1)Nc1ccc([N+](=O)[O-])cc1 ... 35

Now let's try a different one.
Input: Requested field: TGI. Item: `CSc1ccccc1NC(=O)c1ccc2nnn(/C(C#N)=C/c3ccccn3)c2c1`
Output: 30.9

* * *

system: MDA-MB-468 breast; assay: NCI tumour cell line growth inhibition, 48 h; in the data active = GI50 below about 0.43 µM; inactive = the rest
Outcomes you can answer with include only these: 1 (yes) for active, 0 (no) for inactive

ClCc1ccccc1CSc1ncnc2nc[nH]c12 ... 0 (no)
O=C(CS(=O)(=O)c1oc(-c2ccc(Cl)cc2)nc1S(=O)(=O)c1ccc(Cl)cc1)N1CCOCC1 ... 0 (no)
CN1CCN(c2ccc(Nc3nc(N4CCN(S(=O)(=O)c5ccc(F)cc5)CC4)c4sccc4n3)cc2)CC1 ... 0 (no)
O=[n+]1c(CBr)c(CBr)n([O-])c2ccccc21 ... 0 (no)
O=C(Cc1ccc(/C=C/C(=O)c2ncc[nH]2)cc1)Nc1ccc(Cl)cc1 ... 0 (no)

Input: Dear colleague, could you share the recorded outcome for `CN1CCN(Cc2ccc(NC(=O)c3cncc(C#Cc4cnc(N)c5ccccc45)c3)cc2C(F)(F)F)CC1` when you have a moment?
Output: 1 (yes)

Input: Dear colleague, could you share the recorded outcome for `O=C1c2ccccc2C(=O)c2c1ccc1[nH]c(CCl)nc21` when you have a moment?
Output: 0 (no)

* * *

test system: MDA-MB-468 breast; test: NCI tumour cell line growth inhibition, 48 h; in the data active means GI50 below about 0.43 µM; inactive means the rest
Outcomes you can answer with include only these: class 1 (active), class 0 (inactive)

Fc1ccc(-c2nn(-c3ccccc3)cc2-c2nc3ccccc3o2)cc1 ... class 1
CSc1ccccc1NC(=O)c1ccc2nnn(/C(C#N)=C/c3ccccn3)c2c1 ... class 0

Next item in the queue.
Input: Dear colleague, could you share the recorded outcome for `COc1ccccc1NC(=O)c1ccc(/C=C/C(=O)c2nccn2C)cc1` when you have a moment?
Output: class 1
